Parameter: pEC50. Scope: all listed entries.
tested on: HeLa cells; assay: MTT cytotoxicity test on HeLa cells; format: cell-based, human; settings: Homo sapiens, HeLa, 24 h, HeLa, 24 h culture, MTT; read-out: EC50 for HeLa Cells
pEC50: −log10 of the molar value.
Observable: pEC50

CC(=NOCc1ccc(Br)cc1)c1cccs1 | 3.21
CC(=NOCc1ccc([N+](=O)[O-])cc1)c1cccs1 | 3.34

---

experiment: MTT cytotoxicity test on HDF cells; type: cell-based, human; conditions: human, human dermal fibroblasts (HDF); 50 μg/mL, 24 h exposure
Observable: viability at 24 h, 50 μg/mL

C/C(=N\OCCN1CCOCC1)c1ccccc1 | ~20%
